Target or test system: CYP11A1 (Homo sapiens, UniProt P05108)
Construct: human H295R adrenocortical carcinoma cell line was used as source of enzyme; endogenous in cells; host or cells: H295R human adrenocortical carcinoma cells
Sequence (P05108 40-521): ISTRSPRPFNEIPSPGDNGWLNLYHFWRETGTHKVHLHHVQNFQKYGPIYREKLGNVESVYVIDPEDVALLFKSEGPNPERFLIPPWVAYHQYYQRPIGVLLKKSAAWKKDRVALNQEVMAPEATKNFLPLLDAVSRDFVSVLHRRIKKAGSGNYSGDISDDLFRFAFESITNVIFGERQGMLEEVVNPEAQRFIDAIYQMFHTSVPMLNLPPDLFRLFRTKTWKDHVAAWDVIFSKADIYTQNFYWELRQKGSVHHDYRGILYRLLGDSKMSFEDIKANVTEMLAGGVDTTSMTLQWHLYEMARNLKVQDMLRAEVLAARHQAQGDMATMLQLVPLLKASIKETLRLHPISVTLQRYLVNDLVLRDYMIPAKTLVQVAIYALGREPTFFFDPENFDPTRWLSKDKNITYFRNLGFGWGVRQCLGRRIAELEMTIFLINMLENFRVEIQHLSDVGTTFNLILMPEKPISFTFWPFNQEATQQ
Measurement protocol: CYP11A1 inhibition, isocaproic acid release assay (IARA) in H295R cells
Format: cell-based
Cond: human H295R adrenocortical carcinoma cell line, three days, 3 nM [24,25-3H]-labelled cholesterol; read-out: IC50 on CYP11A1 inhibition (Group)
Procedure: The ability of the test compounds to inhibit conversion of cholesterol to pregnenolone and isocaproic acid was measured by modification of isocaproic acid release assay (IARA) described by Ruangwises et al. (Biology of Reproduction 1991; 45(1):143-50) except that human H295R adrenocortical carcinoma cell line was used as source of enzyme and extraction was done with dextran-coated charcoal suspension (Isomaa, V. et al., Endocrinology 1982; 111(3):833-843). […]
Measured IC50, listed per entry.

- Molecule: "CS(=O)(=O)c1cc(CN2Cc3ccccc3C2)ccc1OCC1CCN(S(C)(=O)=O)CC1 [Compound 65]"
  IC50: "< 100 nM"
- Molecule: "CCC(=O)N1CCC(COc2ccc(CN3Cc4ccccc4C3)cc2S(C)(=O)=O)CC1 [Compound 70]"
  IC50: "101 to 200 nM"
- Molecule: "CS(=O)(=O)N1CCC(COc2coc(C(N3Cc4ccccc4C3)C(F)(F)F)cc2=O)CC1 (centres unmarked) [Compound 20]"
  IC50: "201 to 2000 nM"
- Molecule: "O=c1cc(CN2CCc3ccccc3C2)occ1OC1CC2(CCN(S(=O)(=O)c3cccnc3)CC2)C1 [Compound 54]"
  IC50: "201 to 2000 nM"
- Molecule: "CS(=O)(=O)c1ccc(COc2ccc(CN3Cc4ccccc4C3)cc2S(C)(=O)=O)cc1 [Compound 82]"
  IC50: "< 100 nM"
- Molecule: "CCS(=N)(=O)c1ccc(COc2ccc(CN3Cc4ccccc4C3)cc2S(C)(=O)=O)cc1 (centres unmarked) [Compound 71]"
  IC50: "< 100 nM"
- Molecule: "CN(C)C(=O)c1ccc(COc2ccc(CN3Cc4ccccc4C3)cc2S(C)(=O)=O)cc1 [Compound 68]"
  IC50: "< 100 nM"
- Molecule: "CS(=O)(=O)N1CCC(COc2ccc(CN3Cc4ccccc4C3)cc2S(=O)(=O)C2CC2)CC1 [Compound 26]"
  IC50: "101 to 200 nM"
- Molecule: "CS(=O)(=O)c1cc(CN2Cc3cccc(F)c3C2)ccc1OCC1CCN(S(C)(=O)=O)CC1 [Compound 105]"
  IC50: "< 100 nM"
- Molecule: "CS(=O)(=O)c1cc(CN2Cc3ccc(-c4nnco4)cc3C2)ccc1OCC1CCN(S(C)(=O)=O)CC1 [Compound 10]"
  IC50: "101 to 200 nM"
- Molecule: "CC(C)(C)OC(=O)N1CC2(CC(COc3coc(CN4CCc5ccccc5C4)cc3=O)C2)C1 [Compound 30]"
  IC50: "201 to 2000 nM"
- Molecule: "O=c1cc(CN2CCc3ccccc3C2)occ1OCC1CC2(CCN(c3ncccn3)CC2)C1 [Compound 48]"
  IC50: "101 to 200 nM"
- Molecule: "O=c1cc(CN2CCc3ccccc3C2)occ1OCC1CC2(C1)CN(S(=O)(=O)c1ccc(F)cc1)C2 [Compound 58]"
  IC50: "101 to 200 nM"
- Molecule: "CS(=O)(=O)c1ccc(COc2ccc(CN3Cc4ccccc4C3)cc2S(C)(=O)=O)cc1F [Compound 81]"
  IC50: "101 to 200 nM"
- Molecule: "CS(=O)(=O)N1CCC(COc2coc(CN3Cc4ccccc4C4(CC4)C3)cc2=O)CC1 [Compound 103]"
  IC50: "201 to 2000 nM"
- Molecule: "CC(O)c1ccc(COc2ccc(CN3Cc4ccccc4C3)cc2S(C)(=O)=O)cc1 (centres unmarked) [Compound 92b]"
  IC50: "< 100 nM"
- Molecule: "CS(=O)(=O)c1cc(CN2Cc3ccccc3C2)ccc1OCc1ccc(S(=O)(=O)N2CC(O)C2)cc1 [Compound 77]"
  IC50: "< 100 nM"
